Each recorded value in this set is attributed to a melting point compilation (Tetko et al.; mined from patent text by program, amines drawn as free bases though some values may be those of a salt).

MEASUREMENT_LABEL: melting point

Consider the reported melting point for these compounds:
• Cc1ccc(C(=O)c2ccncc2C(=O)O)cc1 = 230 to 231 °C
• CN(C)c1c[nH]c2ncccc12 = 144 to 152 °C
• CSCC(C)NC(=O)c1c(I)cccc1C(=O)Nc1ccc(C2(C(F)(F)F)CC(c3ccc(Cl)cc3)=NO2)cc1C (stereo unspecified) = 116 to 120 °C
• CCOC(=O)c1cc2oc3c(n2n1)CCOC3 = 116 to 118 °C
• CCNC(=O)C(C)(C)COc1cccc2nc(C)c(C(=O)O)c(N)c12 = 168 to 170 °C
• CC(C=Cc1ccc(C(=O)O)cc1)c1ccccc1 (stereo unspecified) = 127 to 130 °C
• CC(=O)Oc1ccc(Cl)nc1 = 45 to 47 °C
• CC(C)c1cccc(C(C)C)c1NC(=O)N(Cc1ccccc1)[C@H]1CC[C@@H](c2ccccc2)CC1 = 148 to 149 °C

May I ask what melting point has been recorded for `COc1ccc2oc(N)c(C#N)c(=O)c2c1` ?
320 °C

Field request: melting point | item: `Cc1scc(CO)c1N`
70 to 71 °C

Return reported melting point; argument: `CCN(CC)C(=O)c1ccc2ccccc2c1-c1ccc(C)cc1`
181 to 183 °C

---

Form field: melting point (one value per entry).

Look up melting point for this compound: `O=CC(=O)c1ccccc1`
120 to 122 °C

Returns the measured melting point for the input compound. Input: `O=C(NO)C1(S(=O)(=O)c2ccc(Oc3ccc(Cl)cc3)cc2)CCN(Cc2ccccc2)CC1`
90.4 °C

Suppose we examine the compound `COc1nc(-c2ccc(=O)n(C(C)C)n2)c(-c2ccccc2)nc1N` ; what melting point value has been reported?
211 to 214 °C

I would be grateful if you could share the reported melting point for `CC(=O)N[C@@H](CSC(=O)C(C)(C)C)C(=O)NCCSC(=O)C(C)C` .
103 to 104 °C

Please give the measured melting point for this compound: `COc1ccc(OC(=O)Nc2cc(C(=O)O)cc(C(=O)O)c2)cc1`
> 300 °C

---

Entries and their measured melting point follow.

Previously resolved entries follow.
- CCOC(=O)C(OCc1ccccc1)C(=O)c1cc(Cl)ccc1OCc1ccccc1 (stereo unspecified): 64 to 65 °C
- CCN(CC)C(=O)C=Cc1cccc([N+](=O)[O-])c1C: 74.3 °C
- CCCCC1=NC(NC(=O)C2(NC(=O)CCC(C)C)CCCC2)C(=O)N(Cc2ccccn2)c2ccccc21 (stereo unspecified): 63 to 67 °C
- CCOC(=O)c1ccc(NS(C)(=O)=O)c([N+](=O)[O-])c1: 124 °C
- CC(C)(O)COCc1onc(-c2ccccc2)c1-c1ccc(S(N)(=O)=O)cc1: 160 to 162 °C

Reported melting point, molecule `CCOC(=O)CC[C@H](NC(=O)OCc1ccccc1)C(=O)O` : ____
82 to 84 °C

Item Cc1ccc(C(N)(c2ccc3c(c2)c(-c2cccc(Cl)c2)nc2nnnn23)c2cncn2C)cc1 (stereo unspecified) has what recorded melting point?
150 °C

// melting point lookup, key: `O=C1NCCN1Cc1cccnc1`
58 to 86 °C

Which melting point reading was recorded for the molecule O=S1(=O)CCN2CCCC(c3ccc(C(F)(F)F)cc3)C2=N1 (stereo unspecified) ?
226 to 227 °C

# query: melting point of entry C=CCc1ccc(OCC(O)CO)c(OC)c1 (stereo unspecified)
77 to 79 °C

Suppose we examine the molecule `O=C(O)/C=C/n1cnc2ccc(C3CC3)cc2c1=O` ; what melting point value has been reported?
291 to 293 °C

---

# melting point listing for each entry below

Worked set:
• COc1ccc(Sc2cncc3sc(C(N)=O)cc23)cc1 = 219 to 221 °C
• CCc1nc2cc(Nc3nccc(-c4ccc(N5CCNCC5)nc4)n3)ccc2o1 = 156 to 159 °C
• COc1c(C(=O)NCCN2CCN(c3cccc(Cl)c3Cl)CC2)cc(Br)c2ccccc12 = 137 °C
• CC(C=O)=Cc1cc([N+](=O)[O-])ccc1Cl = 99 to 102 °C
• COC(=O)c1nc2cccc(Cl)c2c(O)c1C(=O)OC = 174 to 176 °C

Fill in the blank: the reported melting point of `CCOC(=O)COc1ccc(CCCOC(=O)NCC2CC2)c(Oc2ncc(C(F)(F)F)cc2Cl)c1` is ____.
113 °C

# input compound: `CCc1cc(C#N)c(=O)[nH]c1C` ; wanted: its melting point
237 to 240 °C

Using the record for CN(C)C(=O)NNCC1CC2c3cccc4[nH]cc(c34)CC2N(C)C1 (stereo not given) , report its melting point.
205 to 206 °C

Field request: melting point | item: `O=C(Cn1ccnc1)c1ccc(CCc2ccccc2)cc1`
134 to 136 °C

Request the reported melting point associated with `CCOC(=O)c1[nH]c(CC)c(CC)c1C`
71 to 73 °C

---

Quick reference: melting point of the listed items.

Worked cases, answers included:
- CCCCCCCCCCCCCCCCCCCCOC(=O)P(=O)(O)O: 87 to 89 °C
- Cc1ccc(C(=S)c2cc(C(C)(C)C)c(O)c(C(C)(C)C)c2)cc1: 135 to 136 °C
- CCOC(=O)c1c(-c2ccccc2Cl)c2cc(Cl)ccc2[nH]c1=O: 223 to 224 °C
- CC(C(N)=O)c1ccc2c(c1)C(=O)Cc1cccnc1S2 (stereo not given): 190 to 192 °C
- CON=C(c1noc(C)n1)c1ccccc1COc1ccc(Cl)cc1: 125 to 126 °C
- CS(=O)(=O)Nc1ccc(CCCOCCCCCCNCC(O)c2ccc(O)c(CO)c2)cc1 (stereo not given): 48 to 50 °C
- CCOC(=O)CCCN(C(=O)c1ccc(Cl)cc1)c1cccc2ccc(OC)cc12: 92 to 94 °C
- CC1(C)c2ccccc2S(=O)(=O)N1CCCCl: 107 °C

Consider the compound shown here: `O=c1cc(-c2ccccc2)oc2c(C=S)cccc12` What is its recorded melting point?
153 to 157 °C

Recorded melting point for `CCCN(CCC)CCCC1CCN(CCNC(=O)N2c3ccccc3NC(=O)c3csc(C)c32)CC1` , please?
114 to 115 °C

---

As shown below, each of these compounds has a reported melting point value.

Please review the entries below; each comes with its answer.
• COc1cc2c(cc1OC)C(N1CCN(c3ccc4c(c3)CCC(=O)N4)CC1)=NCC2 = 70 to 75 °C
• CC(C)(C)C(=O)Nc1cccc(C(F)(F)F)c1 = 107 °C
• O=C(c1ccc(F)cc1)C1CCN(CC(O)c2cc(Br)no2)CC1 (stereo not given) = 132 to 135 °C

Any idea what its melting point is? The compound is `O=c1ccc(Oc2ccccc2)n[nH]1`
148 °C

Which melting point value belongs to `O=C(O)c1ccccc1-c1nc2cc(-c3ccccc3)ccc2s1` ?
177 to 178 °C

Can you share its melting point? I mean this compound: `NS(=O)(=O)CCCNc1nc(Cl)ncc1Cl`
186 to 187 °C

Reported melting point for `O=C1C=Cc2cc3c(cc2=C1)C=C(S(=O)(=O)NCCN1CCOCC1)C(=O)C=3S(=O)(=O)NCCN1CCOCC1` : what is it?
230 to 233 °C

Look up melting point for this compound: COCC(=O)N[C@@H]1c2cc(C#N)ccc2OC(C)(C)[C@H]1O (relative stereo)
162 to 163 °C

GET /values?readout=melting point&item= `O=c1nccc2sc3cc(-c4ccccc4)ccc3n12`
196 to 197 °C

Given `NS(=O)(=O)c1ccc(CCN2CCN(c3ccncc3)CC2)cc1` , state its recorded melting point.
203 to 204 °C

---

MEASUREMENT_LABEL: melting point

A selection of reference data follows.
* C=CCn1cnnc1-c1c(Cl)c(Cl)cc2nc(OC)c(OC)nc12 | 206 to 208 °C
* CCOC(=O)c1c(C)nc2sc(C)nc2c1NCCCN(C)C | 53 to 54 °C
* CCCCCCCCCCC(=O)c1ccncc1 | 51 to 52 °C
* CCc1ncnc(NC2CCc3cc(OC)ccc3C2)c1Cl (stereo unspecified) | 70 to 71 °C
* CS(=O)(=O)c1ccc(-c2sc(COc3cccc(Cl)c3)nc2-c2ccc(F)cc2)cc1 | 128 to 131 °C

Field request: melting point | item: NCC1Cc2cccc3cccc1c23 (stereo unspecified)
> 250 °C

# input compound: CC(C)C(C)(C(N)=O)N1C(=O)c2ccccc2C1=O (stereo unspecified) ; wanted: its melting point
118 to 119 °C

Entry under review: `NC(=O)c1ccnn1-c1ccc(Oc2ccccc2)cc1` . Reported melting point?
142 to 144 °C

State the recorded melting point for this entry: `C/C(NC1CCCCCC1)=C(\C#N)C(N)=S`
132 to 134 °C

Fill in the blank: the reported melting point of CSC(C#N)NC(=O)c1cccc(Cl)c1 (stereo unspecified) is ____.
115 to 117 °C

Item `CC(=O)c1nc2ccc(Oc3ccccc3)cc2cc1O` has what recorded melting point?
131 to 133 °C

// melting point lookup, key: `CCOC(=O)c1[nH]c2c(C)ccc(C)c2c1C(=O)OC`
128 to 129 °C

For CC(C)(O)CNC(=O)CC1CN=C(c2cc3cc(Oc4ccc(S(C)(=O)=O)nc4)ccc3[nH]2)S1 (stereo unspecified) , what is its reported melting point?
178 to 179 °C

State the recorded melting point for this entry: `COc1cc(Nc2nccc(Nc3ccc(CC(=O)OCc4ccccc4)cc3)n2)cc(OC)c1OC`
149 °C

Returns the measured melting point for the input compound. Input: `CS(=O)(=O)Nc1cccc(Nc2nc(NCc3ccccc3CO)c3nc[nH]c3n2)c1`
145 to 148 °C

Consider the compound `Cc1cc2c(c(C)c1Br)C(=O)C(C)(C)O2` and give its measured melting point.
63 to 64 °C

Record request: melting point value, item `COc1cc(Nc2c(C#N)cnc3cc(/C=C/CCCCCCCCCN4CCOCC4)c(OC)cc23)c(Cl)cc1Cl`
98 to 99 °C

Consider the compound `Cc1nc(C(O)(c2nc(C)c(C)s2)C(C)C)sc1C` and give its measured melting point.
169 to 171 °C

Give the measured melting point of `CC(C)Cn1cnc2c(Cl)nc3ccccc3c21` .
134 to 136 °C

Would you kindly share the measured melting point for `Cn1nc(C#N)nc1NCCCOc1cccc(CN2CCCCC2)c1` ?
66 to 67 °C

Consider the compound shown here: `Cc1c(F)c(F)cc(C#N)c1Cl` What is its recorded melting point?
59 to 61 °C

// lookup melting point for `COC(=O)c1ccccc1S(=O)(=O)Cc1c(O)ccc2c1CCCC2=O`
194 to 196 °C
